Tested on: NCI-H441 (Lung Adenocarcinoma)
Experiment: combination Emax (second highest fraction inhibited in the dose matrix, 72 h); higher = more inhibition; extreme values may be limits of the assay
reportedMetric: combination Emax
Just the number.

compound: Cc1cc2ncnn2cc1Nc1ncc2c(n1)n(C1CCOCC1)c(=O)n2C [AZD7648] + C[C@@H]1COCCN1C2=NC(=NC(=C2)C3(CC3)[S@](=N)(=O)C)C4=C5C=CNC5=NC=C4 [AZD6738] (first compound max 10 µM, 7x7, partner max 10 µM)
combination Emax: 0.478
--
compound: Cc1cc2ncnn2cc1Nc1ncc2c(n1)n(C1CCOCC1)c(=O)n2C [AZD7648] + CN(C)CCCOc1ccc(-c2ccc3ncc4c(c3c2)n(C2CCOCC2)c(=O)n4C)cn1 [AZD0156] (first compound max 10 µM, 7x7, partner max 1 µM)
combination Emax: 0.324
--
compound: CC(=O)Nc1cccc(-n2c(=O)n(C3CC3)c(=O)c3c(Nc4ccc(I)cc4F)n(C)c(=O)c(C)c32)c1 [Trametinib] + Cc1nc(-c2cn3c(n2)-c2ccc(-c4cnn(C(C)(C)C(N)=O)c4)cc2OCC3)n(C(C)C)n1 [Taselisib] (first compound max 1 µM, 7x7, partner max 10 µM)
combination Emax: 0.639

Query string: Report its combination Emax with NCI-H441 (Lung Adenocarcinoma) as the test system: CC(=O)c1c(C)c2cnc(Nc3ccc(N4CCNCC4)cn3)nc2n(C2CCCC2)c1=O [Palbociclib] + CC1(C)CCC(CN2CCN(c3ccc(C(=O)NS(=O)(=O)c4ccc(NCC5CCOCC5)c([N+](=O)[O-])c4)c(Oc4cnc5[nH]ccc5c4)c3)CC2)=C(c2ccc(Cl)cc2)C1 [Venetoclax] (first compound max 10 µM, 7x7, partner max 1 µM)
Result string: 0.224

Query string: Report its combination Emax with NCI-H441 (Lung Adenocarcinoma) as the test system: N#Cc1cnc(Nc2cc(NC[C@H]3CNCCO3)c(C(F)(F)F)cn2)cn1 [SRA737] + C=CCn1c(=O)c2cnc(Nc3ccc(N4CCN(C)CC4)cc3)nc2n1-c1cccc(C(C)(C)O)n1 [AZD1775] (first compound max 10 µM, partner max 1 µM)
Result string: 0.446

Query string: Report its combination Emax with NCI-H441 (Lung Adenocarcinoma) as the test system: COc1cc2ncnc(Nc3ccc(F)c(Cl)c3)c2cc1OCCCN1CCOCC1 [Gefitinib] + CC(C)n1c(=O)n(C)c2cnc3cc(F)c(-c4ccc(OCCCN5CCCCC5)nc4)cc3c21 [AZD1390] (first compound max 10 µM, 7x7, partner max 0.3 µM)
Result string: 0.271
